viability, T/C listing for selected compounds.
test system: 653999-131-R-J2-PDC complex spheroids, growth inhibition; assay: Anticancer human tumor 653999-131-R-J2-PDC patient-derived lung adenocarcinoma cell line growth inhibition [RAS]; conditions: second compound 0.01 µM; first compound 0.0316 µM; hits give low values;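 further: spheroids exposed to the agents for seven days before the readout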

| compound | target_under_test | units_label | viability, T/C |
| --- | --- | --- | --- |
| Nc1ccn(C2OC(CO)C(O)C2(F)F)c(=O)n1 (stereo not drawn) + C=CC(=O)N1CCN(c2nc(OCC3CCCN3C)nc3c(F)c(-c4nc(N)cc(C)c4C(F)(F)F)c(Cl)cc23)C(C)C1 | 653999-131-R-J2-PDC complex spheroids, growth inhibition | % | 54 |
| NC1c2ccccc2OC12CCN(c1cnc3c(N4CCCc5ncccc54)n[nH]c3n1)CC2 (stereo not drawn) + C=CC(=O)N1CCN(c2nc(OCC3CCCN3C)nc3c(F)c(-c4nc(N)cc(C)c4C(F)(F)F)c(Cl)cc23)C(C)C1 | 653999-131-R-J2-PDC complex spheroids, growth inhibition | % | 78.4 |
| CC(=O)OC12COC1CC(O)C1(C)C(=O)C(O)C3=C(C)C(OC(=O)C(O)C(NC(=O)OC(C)(C)C)c4ccccc4)CC(O)(C(OC(=O)c4ccccc4)C21)C3(C)C (stereo not drawn) + C=CC(=O)N1CCN(c2nc(OCC3CCCN3C)nc3c(F)c(-c4nc(N)cc(C)c4C(F)(F)F)c(Cl)cc23)C(C)C1 | 653999-131-R-J2-PDC complex spheroids, growth inhibition | % | 63.7 |
| CC(C)NCC(C(=O)N1CCN(c2ncnc3c2C(C)CC3O)CC1)c1ccc(Cl)cc1 (stereo not drawn) + C=CC(=O)N1CCN(c2nc(OCC3CCCN3C)nc3c(F)c(-c4nc(N)cc(C)c4C(F)(F)F)c(Cl)cc23)C(C)C1 | 653999-131-R-J2-PDC complex spheroids, growth inhibition | % | 89.6 |
| CCC(CC)c1cc(NC2CCC(N)C2)n2nccc2n1 (stereo not drawn) + C=CC(=O)N1CCN(c2nc(OCC3CCCN3C)nc3c(F)c(-c4nc(N)cc(C)c4C(F)(F)F)c(Cl)cc23)C(C)C1 | 653999-131-R-J2-PDC complex spheroids, growth inhibition | % | 91.2 |
| CCN1CCN(Cc2ccc(Nc3ncc(F)c(-c4cc(F)c5nc(C)n(C(C)C)c5c4)n3)nc2)CC1 + C=CC(=O)N1CCN(c2nc(OCC3CCCN3C)nc3c(F)c(-c4nc(N)cc(C)c4C(F)(F)F)c(Cl)cc23)C(C)C1 | 653999-131-R-J2-PDC complex spheroids, growth inhibition | % | 69.3 |
| O=C(c1ccc(F)c(F)c1Nc1ccc(I)cc1F)N1CC(O)([C@@H]2CCCCN2)C1 + C=CC(=O)N1CCN(c2nc(OCC3CCCN3C)nc3c(F)c(-c4nc(N)cc(C)c4C(F)(F)F)c(Cl)cc23)C(C)C1 | 653999-131-R-J2-PDC complex spheroids, growth inhibition | % | 53.2 |
| CC1(O)CCCC1n1c(=O)c(C(F)F)cc2cnc(NC3CCN(S(C)(=O)=O)CC3)nc21 (stereo not drawn) + C=CC(=O)N1CCN(c2nc(OCC3CCCN3C)nc3c(F)c(-c4nc(N)cc(C)c4C(F)(F)F)c(Cl)cc23)C(C)C1 | 653999-131-R-J2-PDC complex spheroids, growth inhibition | % | 82.5 |

// provenance: PubChem BioAssay AID2060886
